Tested on: MHC-I expression by COLO 205 cells
EXPERIMENT_DESCRIPTION: cells
Assay type: cell-based, human
ASSAY_CONDITIONS: MHC-I expression, COLO 205 cells, compounds at 35 μM, 48 hours, flow cytometry (W6/32)
Quick rule: Induction Fold of at least 2 Fold means Y, below that means N.

[[record]]
compound = "O=C(NC12CC3CC(CC(C3)C1)C2)c1nn(CCCCCCl)c2ccccc12 [Example 333]"
class_name = "N"

[[record]]
compound = "COCCn1c(C)c(C)sc1=NC(=O)C1C(C)(C)C1(C)C [Example 95]"
class_name = "Y"

[[record]]
compound = "COC(=O)[C@@H](NC(=O)c1cn(Cc2ccc(F)cc2)c2ccccc12)C(C)C [Example 270]"
class_name = "N"

[[record]]
compound = "COC(=O)[C@@H](NC(=O)c1cn(CC2CCCCC2)c2ccccc12)C(C)C [Example 229]"
class_name = "N"

[[record]]
compound = "CCCCCN1C(=O)C(=NNC(=O)c2ccccc2)c2ccc(OC)cc21 [Example 266]"
class_name = "N"

[[record]]
compound = "O=C(OC12CC3CC(CC(C3)C1)C2)c1nn(CCCCCF)c2ccccc12 [Example 358]"
class_name = "N"

[[record]]
compound = "O=C(NC12CC3CC(CC(C3)C1)C2)c1nn(Cc2ccc(F)cc2)c2ccccc12 [Example 117]"
class_name = "Y"

[[record]]
compound = "CCCCCCC(C)(C)C1=CC(=O)C([C@H]2CCC[C@@H](O)C2)=CC1=O [Example 61]"
class_name = "Y"

[[record]]
compound = "CCCCCCCC(C)(C)c1ccc([C@H]2CCC[C@H](O)C2)c(O)c1 (relative stereo) [Example 301]"
class_name = "N"

